system: SARS-CoV-2 3CL protease (Severe acute respiratory syndrome coronavirus 2, UniProt P0DTD1)
reported endpoint: pIC50
Quick note: pIC50 values are minus log10 of concentrations in mol/L.

[in] Lab note: need pIC50 with SARS-CoV-2 3CL protease (Severe acute respiratory syndrome coronavirus 2, UniProt P0DTD1) for entry COc1ccc(C=C[N+](=O)[O-])cc1OC , please look it up.
[out] 5.30
